src = patent US10308617B2

Target: Parkin ligase (Homo sapiens, UniProt O60260)
Sequence (O60260 whole entry): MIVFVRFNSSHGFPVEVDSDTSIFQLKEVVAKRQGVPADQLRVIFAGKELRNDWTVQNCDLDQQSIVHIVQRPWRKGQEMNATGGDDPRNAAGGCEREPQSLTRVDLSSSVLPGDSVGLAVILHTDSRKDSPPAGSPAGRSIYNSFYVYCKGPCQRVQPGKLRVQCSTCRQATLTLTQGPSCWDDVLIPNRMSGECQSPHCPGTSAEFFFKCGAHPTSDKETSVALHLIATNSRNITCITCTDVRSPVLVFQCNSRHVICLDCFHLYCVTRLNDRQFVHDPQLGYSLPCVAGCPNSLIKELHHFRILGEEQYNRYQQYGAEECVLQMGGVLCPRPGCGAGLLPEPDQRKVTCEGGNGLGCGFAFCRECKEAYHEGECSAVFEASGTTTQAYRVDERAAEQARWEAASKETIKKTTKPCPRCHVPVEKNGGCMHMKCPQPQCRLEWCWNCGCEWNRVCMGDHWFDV
Assay: Activity-Based Probe Assay using an Ubiquitin vinyl sulfone probe (TR-FRET)
Type: biochemical
Conditions: Parkin activation, HA-Ub-VS probe, heat activated Parkin; read-out: Probe Assay EC50 (μM) [Example 2]
Description: An Ubiquitin vinyl sulfone probe can be used that irreversibly binds to the active site cysteine of Parkin ligase. Covalent attachment of the probe to the Parkin can be monitored by TR-FRET. Candidate activator compounds can be identified by increasing the activity of Parkin ligase due to an increase in TR-FRET signal. […] Data Analysis: The Data can be read in CSV files. […]
Parameter: EC50 (µM)

Examples from the recorded data:
O=C(Nc1nc(NC(=O)c2cc3ccccc3s2)n(-c2ccccc2)n1)c1ccccc1
50
C/C=C/C(=O)Nc1nc(Nc2ncnc3ccccc23)n(-c2ccccc2)n1
37
Cc1ccccc1C(=O)Nc1nc(NC(=O)c2ccccn2)n(-c2ccccc2)n1 [Compound P3]
9
O=C(/C=C/c1ccccc1)Nc1nc(NC(=O)c2ccccc2)nn1-c1ccccc1
15.1

I. CN1CCC(C(=O)Nc2nc(Nc3ncnc4ccccc34)n(-c3ccccc3)n2)CC1 [Compound D1]
II. Cc1ccc(-c2nc(NC(=O)c3ccccc3C)n(-c3ccccc3)n2)nc1
III. Cc1ccccc1C(=O)Nc1nc(-c2ccccn2)nn1-c1ccccc1
q: Exam item: list the entries in increasing order of EC50. Put the labels in the order asked and list them.
a: II, III, I
(II: 3 µM, III: 26 µM, I: 38.9 µM)

---

test system: LS-174T (colon); test: Cancer Cell Proliferation Assay (acid phosphatase, 72 hrs); type: cell-based; details: Homo sapiens, LS174T, read-out: IC50 on cancer cell line proliferation, LS-174T
Parameter: IC50 (nM)

P. O=C(Nc1nc(Nc2ncnc3ccccc23)n(-c2ccccc2)n1)c1ccccc1 [Compound L]
Q. Cc1ccccc1C(=O)Nc1nc(NC(=O)c2ccccc2C)n(-c2ccccc2)n1 [Compound F]
R. O=C(Nc1nc(-c2ccccn2)nn1-c1ccccc1)c1ccccc1 [Compound Y1]
q: Falling order of IC50, please. Put the labels in the order asked and list them.
a: Q, P, R
(Q: 2670 nM, P: 1520 nM, R: 938 nM)

---

experiment: Oral Bioavailability (PO) and Pharmacokinetics Assay; assay type: in vivo, Sprague-Dawley rats; conditions: male, Sprague-Dawley, plasma; rat, PO 5 mg/kg
Parameter: Tmax (min)

Examples from the recorded data:
Cc1ccccc1C(=O)Nc1nc(NC(=O)c2ccccc2)nn1-c1ccccc1 [Compound K]
25.2
O=C(/C=C/c1ccccc1)Nc1nc(NC(=O)c2ccccc2)nn1-c1ccccc1 [Compound C]
22.8

1. Cc1ccccc1C(=O)Nc1nc(NC(=O)c2ccccc2)n(-c2ccccc2)n1 [Compound H]
2. O=C(Nc1nc(NC(=O)c2ccccc2)n(-c2ccccc2)n1)c1ccccc1 [Compound A]
q: Tmax comparison. Which is larger, 1 or 2 ? Use the label to indicate which entry you chose.
a: 1
(1: 79.8 min, 2: 25 min)

---

test: Oral Bioavailability (PO) and Pharmacokinetics Assay; format: in vivo, Sprague-Dawley rats; details: male, Sprague-Dawley, rat, plasma, iv, 1 mg/kg, IV bolus 1 mg/kg, read-out: T½ (converted)
Parameter: half-life (min)

Examples from the recorded data:
O=C(Nc1nc(NC(=O)c2ccccc2)n(-c2ccccc2)n1)c1ccccc1
51
Cc1ccccc1C(=O)Nc1nc(NC(=O)c2ccccc2)n(-c2ccccc2)n1
41.4
Cc1ccccc1C(=O)Nc1nc(NC(=O)c2ccccc2)nn1-c1ccccc1
36

P. Cc1ccccc1C(=O)Nc1nc(NC(=O)c2ccccc2C)n(-c2ccccc2)n1
Q. O=C(/C=C/c1ccccc1)Nc1nc(NC(=O)c2ccccc2)nn1-c1ccccc1
q: half-life comparison. Which is larger, P or Q ? Use the label to indicate which entry you chose.
a: P
(P: 150 min, Q: 42.6 min)
